Origin of the recorded values: the supplement of paper PMC10567573

For each entry below, report its protein stability index value.
B1: KCNK9 (parent)
chain: DVPDLQSVCSCTCYRSQDYGGRSV

variants of: B1; experiment: protein stability index of a GFP-peptide fusion (GPS, HEK-293T) (PSI 1-6); higher = more stable; settings: c terminus: a fixed tail appended;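 further: lentivirally expressed fusions sorted by FACS into six bins by GFP to DsRed ratio, PSI derived from sequencing read proportions per bin multiplied by bin number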
Give a plain numeric answer without units written out.

Sample DVPDLQSVQSCTCYRSQDYGGRSV [C9Q] ; protein stability index observed: 2.03

Sample DVPDLQSVCSCTCYYSQDYGGRSV [R15Y] ; protein stability index observed: 1.98

Sample DVPDLQTVCSCTCYRSQDYGGRSV [S7T] ; protein stability index observed: 2.03
